Reference for the values: ChEMBL document CHEMBL3867431

Biological target: Alpha-1A adrenergic receptor (Rattus norvegicus) (UniProt P43140)
Sequence (P43140 whole entry): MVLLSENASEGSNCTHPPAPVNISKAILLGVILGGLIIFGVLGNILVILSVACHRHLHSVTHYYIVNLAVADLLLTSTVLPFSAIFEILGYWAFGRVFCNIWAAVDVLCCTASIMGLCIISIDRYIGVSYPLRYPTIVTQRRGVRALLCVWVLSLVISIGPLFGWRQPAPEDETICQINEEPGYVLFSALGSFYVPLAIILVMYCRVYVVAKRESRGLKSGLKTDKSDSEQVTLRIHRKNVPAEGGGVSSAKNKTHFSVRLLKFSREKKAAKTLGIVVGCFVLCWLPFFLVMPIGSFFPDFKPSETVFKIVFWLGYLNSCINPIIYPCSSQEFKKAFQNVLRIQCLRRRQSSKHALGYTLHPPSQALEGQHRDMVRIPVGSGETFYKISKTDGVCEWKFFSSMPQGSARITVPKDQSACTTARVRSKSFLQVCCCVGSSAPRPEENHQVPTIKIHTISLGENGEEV
Assay: Antagonist activity at alpha1A-adrenoceptor in Wistar rat prostatic vas deference assessed as inhibition of (-)-NE-induced contractions preincubated for 60 mins before (-)-NE challenge measured after 45 mins
OBSERVATION TYPE: pKb

Look over these answered cases.
>>> recorded_result("CCOc1ccccc1N1CCN(CCc2ccc3c(c2)OCO3)CC1")
9.09
>>> recorded_result("CCOc1ccccc1N1CCN(CCc2ccc(OC)cc2)CC1")
8.89
>>> recorded_result("COc1ccccc1N1CCN(CCc2ccccc2)CC1")
7.76

Can you share its pKb? I mean this molecule: CCOc1ccccc1N1CCN(CCc2cccc(OC)c2)CC1
8.39

Look up pKb: CC(C)Oc1ccccc1N1CCN(CCc2ccc3c(c2)OCO3)CC1
8.27

I'd like to know its pKb. The molecule in question is COc1ccccc1N1CCN(CCc2ccc3c(c2)OCO3)CC1
8.47

May I ask what pKb has been recorded for COc1cccc(CCN2CCN(c3ccccc3OC(C)C)CC2)c1 ?
8.87

What value of pKb has been reported for the following molecule? CC(C)Oc1ccccc1N1CCN(CCc2ccccc2)CC1
8.29

Find the recorded pKb belonging to CCOc1ccccc1N1CCN(CCc2ccc(OC)c(OC)c2)CC1 and report it.
9.1

Return reported pKb; argument: COc1ccc(CCN2CCN(c3ccccc3OC(C)C)CC2)cc1OC
9.55
